Tested on: MDA-MB-468
TEST SUMMARY: 13C3 Serine Assay MDA-MB-468 (13C3 serine levels by LC/MS/MS)
Assay type: cell-based
RUN CONDITIONS: Homo sapiens; MDA-MB-468 cells, 13C3 serine levels by LC/MS/MS; read-out: IC50 (13CSERINE)
pIC50: −log10 of the molar value.
Decision: pIC50 compared against 8; not below it gives satisfied, below it gives not satisfied.

Does pIC50 meet or surpass 8 for COC(=O)CS(=O)(=O)c1ccc([C@@H](C)NC(=O)c2cc3c(Cl)c(Cl)c(C)nc3n2C)cc1 [Example 01-006] ? not satisfied

One more compound: C[C@@H](NC(=O)c1cc(-c2ccc(F)cc2)nn1C)c1ccc(S(=O)(=O)CC(=O)NOCCN2CCOCC2)cc1 [Example 15-001] not satisfied

One more compound: COC(=O)CS(=O)(=O)c1ccc([C@@H](C)NC(=O)c2cc(-c3ccccc3)nn2C)cn1 [Example 02-010] not satisfied

One more compound: COC(=O)C(C)S(=O)(=O)c1ccc([C@@H](C)NC(=O)c2cc3c(Cl)cc(C)cc3n2C)cc1 (stereo partly drawn) [Example 05-009] satisfied

One more compound: CCOC(=O)CS(=O)(=O)c1ccc([C@@H](C)NC(=O)c2cc(-c3ccccc3)n(C)n2)cc1 [Example 15-010] not satisfied

One more compound: Cc1cc(Cl)c2cc(C(=O)N[C@H](C)c3ccc(S(=O)(=O)CC(=O)OC(C)C)cc3)n(C)c2c1 [Example 01-018] not satisfied

One more compound: Cc1cc(Cl)c2cc(C(=O)N[C@H](C)c3ccc(S(=O)(=O)C(C)(C)C(N)=O)cc3)n(C)c2c1 [Example 15-007] not satisfied

One more compound: CCOC(=O)C(C)(C)S(=O)(=O)c1ccc([C@@H](C)NC(=O)c2cc3c(Cl)cc(C)cc3n2C)cc1 [Example 05-003] not satisfied

One more compound: COC(=O)CS(=O)(=O)c1ccc([C@@H](CO)NC(=O)c2cc3c(Cl)c(Cl)c(C)cc3n2C)cc1 [Example 01-007] satisfied

One more compound: COC(=O)CS(=O)(=O)c1ccc([C@@H](C)NC(=O)c2cc3c(Cl)cc(-c4cnn(C)c4)cc3n2C)cc1 [Example 01-003] not satisfied

One more compound: COC(=O)CS(=O)(=O)c1ccc([C@@H](C)NC(=O)c2cc(-c3ccc(F)cc3)nn2C)cc1 [Example 02-001] not satisfied

One more compound: CC(C)OC(=O)CS(=O)(=O)c1ccc([C@@H](C)NC(=O)c2cc3cc(Cl)c(-c4cnn(CCN5CCOCC5)c4)cc3n2C)cc1 [Example 01-026] not satisfied

One more compound: CCOCCOCCOC(=O)CS(=O)(=O)c1ccc([C@@H](C)NC(=O)c2cc3c(Cl)cc(C)cc3n2C)cc1 [Example 09-001] not satisfied

One more compound: CCOC(=O)C(C)S(=O)(=O)c1ccc([C@@H](C)NC(=O)c2cc3c(Cl)cc(C)cc3n2C)cc1 (stereo partly drawn) [Example 05-011] satisfied

One more compound: CCOC(=O)CS(=O)(=O)c1ccc([C@@H](C)NC(=O)c2cc3c(Cl)cc(-c4cnn(C)c4)cc3n2C)cc1 [Example 01-009] not satisfied

One more compound: COC(=O)CS(=O)(=O)c1ccc([C@@H](C)NC(=O)c2cc3c(Cl)cc(C)cc3n2C)nc1 [Example 01-029] not satisfied

One more compound: Cc1cc(Cl)c2cc(C(=O)N[C@H](C)c3ccc(S(=O)(=O)C4(C(=O)O)CCOCC4)cc3)n(C)c2c1 [Example 07-002] not satisfied

One more compound: COC(=O)C1(S(=O)(=O)c2ccc([C@@H](C)NC(=O)c3cc(-c4ccc(F)cc4)nn3C)cc2)CCOCC1 [Example 06-001] not satisfied

One more compound: COC(=O)C1(S(=O)(=O)c2ccc([C@@H](C)NC(=O)c3cc4c(Cl)cc(C)cc4n3C)cc2)CC1 [Example 05-019] not satisfied

One more compound: COC(=O)C(C)(C)S(=O)(=O)c1ccc([C@@H](C)NC(=O)c2cc(-c3ccc(F)cc3)nn2C)cc1 [Example 06-002] not satisfied

One more compound: CCOC(=O)CS(=O)(=O)c1ccc([C@@H](CO)NC(=O)c2cc3c(Cl)cc(C)cc3n2C)cc1 [Example 01-005] satisfied

One more compound: Cc1cc(Cl)c2cc(C(=O)N[C@H](C)c3ccc(S(=O)(=O)C(C)(C)C(=O)OC(C)C)cc3)n(C)c2c1 [Example 05-012] not satisfied
